Provenance of the data: patent US20140271653A1

biological target: RSV-F of RSV subtype A strain Long (respiratory syncytial virus subtype A, …, UniProt P12568 26-574); assay: cell-based or functional assay
Sequence (P12568 26-574): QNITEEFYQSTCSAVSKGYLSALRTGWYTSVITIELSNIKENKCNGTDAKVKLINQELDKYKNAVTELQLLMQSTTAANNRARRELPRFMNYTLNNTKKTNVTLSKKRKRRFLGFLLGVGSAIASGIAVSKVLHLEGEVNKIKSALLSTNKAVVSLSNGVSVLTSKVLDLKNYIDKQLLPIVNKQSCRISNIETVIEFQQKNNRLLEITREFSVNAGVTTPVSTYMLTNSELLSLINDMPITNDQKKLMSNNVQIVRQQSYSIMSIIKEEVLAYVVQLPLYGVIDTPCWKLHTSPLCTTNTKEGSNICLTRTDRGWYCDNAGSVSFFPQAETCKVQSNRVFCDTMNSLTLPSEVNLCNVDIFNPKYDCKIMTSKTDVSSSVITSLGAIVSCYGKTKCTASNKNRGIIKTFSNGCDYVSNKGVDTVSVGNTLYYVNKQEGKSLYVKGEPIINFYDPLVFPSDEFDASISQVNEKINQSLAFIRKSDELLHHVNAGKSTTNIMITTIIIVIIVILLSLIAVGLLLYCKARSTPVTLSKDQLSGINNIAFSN
Each item that follows carries a reported RSV-Long Neutral. IC50 [pM].
Endpoint name: RSV-Long Neutral. IC50 [pM] (pM)

Binder: Control II (motavizumab sequence) (antibody, V domains shown) VH: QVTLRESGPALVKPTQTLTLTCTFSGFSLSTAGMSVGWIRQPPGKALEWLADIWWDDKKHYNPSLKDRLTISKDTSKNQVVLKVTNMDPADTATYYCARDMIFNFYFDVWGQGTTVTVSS VL: DIQMTQSPSTLSASVGDRVTITCSASSRVGYMHWYQQKPGKAPKLLIYDTSKLASGVPSRFSGSGSGTEFTLTISSLQPDDFATYYCFQGSGYPFTFGGGTKVEIKR
Endpoint name: RSV-Long Neutral. IC50 [pM]
Measured: 65
//
Binder: Control I (palivizumab sequence) (antibody, V domains shown, also called Control 1; SYNAGIS) VH: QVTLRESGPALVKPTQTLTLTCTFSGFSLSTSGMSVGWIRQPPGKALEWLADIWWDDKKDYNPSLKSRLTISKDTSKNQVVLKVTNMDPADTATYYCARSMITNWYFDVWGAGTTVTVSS VL: DIQMTQSPSTLSASVGDRVTITCKCQLSVGYMHWYQQKPGKAPKLLIYDTSKLASGVPSRFSGSGSGTEFTLTISSLQPDDFATYYCFQGSGYPFTFGGGTKLEIKR
Endpoint name: RSV-Long Neutral. IC50 [pM]
Measured: 536
//
Binder: H1H3627N (antibody, V domains shown) VH: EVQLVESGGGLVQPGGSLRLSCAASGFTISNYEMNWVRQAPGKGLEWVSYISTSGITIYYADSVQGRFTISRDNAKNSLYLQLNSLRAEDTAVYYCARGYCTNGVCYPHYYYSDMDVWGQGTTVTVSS VL: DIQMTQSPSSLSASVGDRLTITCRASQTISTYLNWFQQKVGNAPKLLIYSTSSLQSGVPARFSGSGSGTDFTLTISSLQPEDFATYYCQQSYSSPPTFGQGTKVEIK
Endpoint name: RSV-Long Neutral. IC50 [pM]
Measured: 7.3
//
Binder: H1H3592P3 (antibody, V domains shown) VH: EVQLVESGGDLVQPGRSLRLSCVASGFTFDDYAMHWVRQAPGKGLEWVSGVSWSGSTVGYADSVKGRFTVSRDNAQKSLYLQMNSLRAEDTALYYCVKDAYKFNYYYYGLDVWGQGTTVTVSS VL: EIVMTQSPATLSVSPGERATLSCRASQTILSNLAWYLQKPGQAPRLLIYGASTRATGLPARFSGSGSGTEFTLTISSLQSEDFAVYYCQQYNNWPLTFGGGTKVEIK
Endpoint name: RSV-Long Neutral. IC50 [pM]
Measured: 15
